Every entry's value here was drawn from ChEMBL document CHEMBL1155088.

# Tested on: MCF7
# Assay: Cytotoxicity against human MCF7 cells after 48 hrs by MTT assay
# Assay type: functional, cell-based
# Setup Conditions: MCF7, 48 h
Hi! Just check whether IC50 is below 60 µg/mL. Below gives yes (1), equal or above gives no (0).

Prompt: Strictly below 60 µg/mL: is that where IC50 of C=C1CCC[C@]2(C)CC[C@@H]3[C@H](OC(=O)[C@H]3COC)[C@@H]12 sits?
Response: no (0)

Prompt: I wonder whether C=C1C(=O)O[C@@H]2/C=C(\C)CCC[C@H](C)CC[C@H]12 [ISODIHYDROCOSTUNOLIDE] has IC50 below 60 µg/mL. Can you tell?
Response: yes (1)

Prompt: Given COC[C@@H]1C(=O)O[C@@H]2/C=C(\C)CC/C=C(\C)CC[C@@H]12 , is recorded IC50 strictly lower than 60 µg/mL?
Response: no (0)

Prompt: Check if IC50 falls below 60 µg/mL for C/C1=C\[C@H]2OC(=O)[C@@H](C)[C@@H]2CC/C(C)=C/CC1 [DIHYDRO COSTUNOLIDE] .
Response: yes (1)

Prompt: Given COC[C@@H]1C(=O)O[C@H]2[C@H]1CC[C@@]1(C)CCCC3(OCOO3)[C@H]21 (stereo partly specified) , is recorded IC50 strictly lower than 60 µg/mL?
Response: no (0)

Prompt: Below 60 µg/mL on IC50? Entry COC[C@@H]1C(=O)O[C@H]2[C@H]1CC[C@@]1(C)CCCC(=O)[C@H]21
Response: no (0)
